Cited source: ChEMBL document CHEMBL6092189

# Experiment Notes: Cytotoxicity against human HeLa cells assessed as reduction in cell viability incubated for 24 hrs by MTT assay
# Type: toxicity, cell-based
Parameter: IC50 at 24 h

Consider the worked cases shown below.
Cl.Cl.Cl.Cl.NC[C@H]1O[C@H](O[C@H]2[C@H](O)[C@@H](O[C@H]3O[C@H](Cn4cc(CNC(=O)c5ccccc5Cl)nn4)[C@@H](O)[C@H](N)[C@H]3O)[C@H](N)C[C@@H]2N)[C@H](O)[C@@H](O)[C@@H]1O = > 100 µg/mL
Cl.Cl.Cl.Cl.NC[C@H]1O[C@H](O[C@H]2[C@H](O)[C@@H](O[C@H]3O[C@H](Cn4cc(CNC(=O)c5ccc(Cl)cc5Cl)nn4)[C@@H](O)[C@H](N)[C@H]3O)[C@H](N)C[C@@H]2N)[C@H](O)[C@@H](O)[C@@H]1O = > 100 µg/mL

Value of measured IC50 at 24 h for the entry `Cl.Cl.Cl.Cl.NC[C@H]1O[C@H](O[C@H]2[C@H](O)[C@@H](O[C@H]3O[C@H](Cn4cc(CNC(=O)c5ccc(Cl)cc5)nn4)[C@@H](O)[C@H](N)[C@H]3O)[C@H](N)C[C@@H]2N)[C@H](O)[C@@H](O)[C@@H]1O` : > 100 µg/mL

----------
# Test system: Diutina rugosa
# Experiment Notes: Antifungal activity against Candida rugosa 95-967 assessed as inhibition of fungal growth incubated for 48 hrs by two-fold dilution assay
# Format: functional
Parameter: MIC (µg/mL)
Give bare numbers, in µg/mL.

OC(Cn1cncn1)(Cn1cncn1)c1ccc(F)cc1F = 8

Next item in the queue.
Value of measured MIC for the entry OC(Cn1cncn1)c1ccc(Cl)cc1Cl (centres undefined) : 64

----------
Would you mind telling me the reported MIC of each entry?
# System: Candida albicans
# Experiment Notes: Antifungal activity against Candida albicans MYA2876 assessed as inhibition of fungal growth incubated for 48 hrs by two-fold dilution method
# Format: functional
Give bare numbers, in µg/mL.

Consider the worked cases shown below.
Cl.Cl.Cl.Cl.NC[C@H]1O[C@H](O[C@H]2[C@H](O)[C@@H](O[C@H]3O[C@H](Cn4cc(COC(Cn5ccnc5)c5ccc(Cl)cc5Cl)nn4)[C@@H](O)[C@H](N)[C@H]3O)[C@H](N)C[C@@H]2N)[C@H](O)[C@@H](O)[C@@H]1O (stereo not given in full) = 128
Cl.Cl.Cl.Cl.NC[C@H]1O[C@H](O[C@H]2[C@H](O)[C@@H](O[C@H]3O[C@H](Cn4cc(COC(Cn5cncn5)c5ccc(Cl)cc5Cl)nn4)[C@@H](O)[C@H](N)[C@H]3O)[C@H](N)C[C@@H]2N)[C@H](O)[C@@H](O)[C@@H]1O (stereo not given in full) = 16
OC(Cn1cncn1)(Cn1cncn1)c1ccc(F)cc1F = 128
OC(Cn1cncn1)c1ccc(Cl)cc1Cl (stereo not given) = 64

Next item in the queue.
Value of measured MIC for the entry Cl.Cl.Cl.Cl.NC[C@H]1O[C@H](O[C@H]2[C@H](O)[C@@H](O[C@H]3O[C@H](Cn4cc(COC(Cn5ccnc5)c5ccc(F)cc5F)nn4)[C@@H](O)[C@H](N)[C@H]3O)[C@H](N)C[C@@H]2N)[C@H](O)[C@@H](O)[C@@H]1O (stereo not given in full) : 128

----------
# System: Staphylococcus aureus
# Experiment Notes: Antibacterial activity against Staphylococcus aureus ATCC 25923 assessed as inhibition of bacterial growth incubated for 18 hrs by two-fold dilution method
# Assay type: functional
Parameter: MIC (µg/mL)
Numbers only, in µg/mL.

Value of measured MIC for the entry `NC[C@H]1O[C@H](O[C@H]2[C@H](O)[C@@H](O[C@H]3O[C@H](CO)[C@@H](O)[C@H](N)[C@H]3O)[C@H](N)C[C@@H]2N)[C@H](O)[C@@H](O)[C@@H]1O` : 1

----------
# System: Staphylococcus aureus
# Experiment Notes: Antibacterial activity against Staphylococcus aureus ATCC 25923 assessed as inhibition of bacterial growth incubated for 18 hrs by two-fold dilution method
# Type: functional
Parameter: MIC

Consider the worked cases shown below.
Cl.Cl.Cl.Cl.NC[C@H]1O[C@H](O[C@H]2[C@H](O)[C@@H](O[C@H]3O[C@H](Cn4cc(COC(Cn5ccnc5)c5ccc(F)cc5F)nn4)[C@@H](O)[C@H](N)[C@H]3O)[C@H](N)C[C@@H]2N)[C@H](O)[C@@H](O)[C@@H]1O (stereo partly specified) = 64 mg/L
Cl.Cl.Cl.Cl.NC[C@H]1O[C@H](O[C@H]2[C@H](O)[C@@H](O[C@H]3O[C@H](Cn4cc(CNC(=O)c5ccccc5Cl)nn4)[C@@H](O)[C@H](N)[C@H]3O)[C@H](N)C[C@@H]2N)[C@H](O)[C@@H](O)[C@@H]1O = ≥ 256 mg/L
Cl.Cl.Cl.Cl.NC[C@H]1O[C@H](O[C@H]2[C@H](O)[C@@H](O[C@H]3O[C@H](Cn4cc(CNC(=O)c5ccc(Cl)cc5)nn4)[C@@H](O)[C@H](N)[C@H]3O)[C@H](N)C[C@@H]2N)[C@H](O)[C@@H](O)[C@@H]1O = 64 mg/L
Cl.Cl.Cl.Cl.NC[C@H]1O[C@H](O[C@H]2[C@H](O)[C@@H](O[C@H]3O[C@H](Cn4cc(CNC(=O)c5ccc(Cl)cc5Cl)nn4)[C@@H](O)[C@H](N)[C@H]3O)[C@H](N)C[C@@H]2N)[C@H](O)[C@@H](O)[C@@H]1O = 128 mg/L
Cl.Cl.Cl.Cl.NC[C@H]1O[C@H](O[C@H]2[C@H](O)[C@@H](O[C@H]3O[C@H](Cn4cc(COC(Cn5cncn5)c5ccc(Cl)cc5Cl)nn4)[C@@H](O)[C@H](N)[C@H]3O)[C@H](N)C[C@@H]2N)[C@H](O)[C@@H](O)[C@@H]1O (stereo partly specified) = 128 mg/L

Next item in the queue.
Observed MIC on Staphylococcus aureus, entry Cl.Cl.Cl.Cl.NC[C@H]1O[C@H](O[C@H]2[C@H](O)[C@@H](O[C@H]3O[C@H](Cn4cc(COC(Cn5ccnc5)c5ccc(Cl)cc5Cl)nn4)[C@@H](O)[C@H](N)[C@H]3O)[C@H](N)C[C@@H]2N)[C@H](O)[C@@H](O)[C@@H]1O (stereo partly specified) , equals 128 mg/L

----------
Would you mind telling me the reported MIC of each entry?
# Tested on: Diutina rugosa
# Experiment Notes: Antifungal activity against Candida rugosa 95-967 assessed as inhibition of fungal growth incubated for 48 hrs by two-fold dilution assay
# Type: functional

Cl.Cl.Cl.Cl.NC[C@H]1O[C@H](O[C@H]2[C@H](O)[C@@H](O[C@H]3O[C@H](Cn4cc(CNC(=O)c5ccccc5Cl)nn4)[C@@H](O)[C@H](N)[C@H]3O)[C@H](N)C[C@@H]2N)[C@H](O)[C@@H](O)[C@@H]1O = ≥ 256 µg/mL

Observed MIC on Diutina rugosa, entry NC[C@H]1O[C@H](O[C@H]2[C@H](O)[C@@H](O[C@H]3O[C@H](CO)[C@@H](O)[C@H](N)[C@H]3O)[C@H](N)C[C@@H]2N)[C@H](O)[C@@H](O)[C@@H]1O [KANAMYCIN] , equals ≥ 256 µg/mL
